System: ATP;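 further: ATP exposure 15 min at 22 °C before imaging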
test_details: switch fluorescence ratio, 500 uM ATP over buffer (Cy3 cluster intensity, sum of 5 cycles each) (fold (ratio)); higher = stronger signal-on switching upon ATP binding; sequences stand for … in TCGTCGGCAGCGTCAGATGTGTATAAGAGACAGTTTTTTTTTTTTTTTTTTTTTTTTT…TC
measurement_context: aptamer strand: ATP DNA aptamer (quencher-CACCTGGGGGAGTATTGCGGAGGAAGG + anchor), 100 nM annealed; ATP concentration: 500 uM
switch fluorescence ratio: recorded values

# sequence_entry, switch fluorescence ratio
measured = [
    ("CGCTGTCGGA", 1.01),
    ("TAAAATGCAT", 0.979),
    ("TGGAGTTTAA", 1),
    ("GGCAACGGGG", 1.01),
    ("AGTTGCTTCG", 0.975),
]

q: Which value of switch fluorescence ratio has been reported for `TTTTAACTGT` in the records?
a: 1.01
